Here we gather IC50 data for Isocitrate dehydrogenase [NADP] cytoplasmic (Homo sapiens) reported by several publications.

- compound: "Cc1ccccc1C(C(=O)NC1CCCCC1)N(C(=O)Cn1ccnc1C)c1cccc(F)c1 (configuration not stated)"
  IC50: "> 100 µM"
- compound: "O=C(C1CCc2ccccc2CC1)N1Cc2cccnc2Nc2ccc(N3CCOCC3)cc21"
  IC50: "> 5 µM"
- compound: "C[C@@H]1C(=O)C=C[C@]2(c3ccccc3)c3nc(Nc4ccccc4)ncc3CC[C@@H]12"
  IC50: "> 10 µM"
- compound: "CC(C)(C)c1cc(C(OC2CCCCC2)c2ccccn2)cc(C(C)(C)C)c1O (configuration not stated)"
  IC50: "> 50 µM"
- compound: "Cc1cc(C)c2[nH]c(Nc3cc(S(=O)(=O)NC4CC4)ccc3-c3ccsc3)nc2c1"
  IC50: "> 100 µM"
- compound: "CC(C)(C)c1cc(C(c2ccccn2)N2CCN(C3CCCCC3)CC2)cc(C(C)(C)C)c1O (configuration not stated)"
  IC50: "> 50 µM"
- compound: "C=CC(C)(C)c1cc(/C=C/C(=O)c2ccc(O)cc2)c(OC)cc1O"
  IC50: "> 100 µM"
- compound: "O=S(=O)(NC1CC1)c1ccc(-c2ccsc2)c(Nc2nc3cc(Br)ccc3[nH]2)c1"
  IC50: "> 100 µM"
- compound: "CC(C)O[C@H]1CC[C@H](C(=O)N2Cc3cccnc3Nc3ccc(N4C[C@H]5CC[C@@H]4CO5)cc32)OC1"
  IC50: "> 50 µM"
- compound: "O=S(=O)(NC1CC1)c1ccc(-c2ccsc2)c(Nc2nc3cc(F)ccc3[nH]2)c1"
  IC50: "> 100 µM"
- compound: "CC(C)(O)CNc1nc(Nc2ccnc(C(F)(F)F)c2)nc(-c2cccc(C(F)(F)F)n2)n1"
  IC50: "> 100 µM"
- compound: "CCCCN1CCN(C(c2cc(C(C)(C)C)c(O)c(C(C)(C)C)c2)c2ccccn2)CC1 (configuration not stated)"
  IC50: "12.8 µM"
